Test system: Expi293 cells transfected with His-Halotag
EXPERIMENT NOTES: Library cell penetration assay, cell crash method (Example 6)
Format: in vitro ADME, human
TEST CONDITIONS: library pool tested as mixture, MS signal of unconverted —Cl agent
METRIC NAME: Peptide Signal in Cells (from cells; agents comprising —Cl)

Task item: State measured Peptide Signal in Cells (from cells; agents comprising —Cl) of the compound CC(C)C[C@H](NC(=O)CCC(=O)NCCOCCOCCCCCCCl)C(=O)N[C@H](C(=O)N[C@@H](Cc1ccccc1)C(=O)N[C@]1(C)CCCCCCC=CCCC[C@@](C)(C(=O)N[C@@H](CO)C(=O)N[C@@H](C)C(=O)N[C@@H](C)C(N)=O)NC(=O)[C@H](CC2CCC2)NC(=O)[C@H](C)NC(=O)[C@H](C)NC(=O)[C@H](Cc2c[nH]c3ccccc23)NC(=O)[C@H](Cc2ccc(O)cc2)NC(=O)[C@H](CCC(=O)O)NC1=O)[C@@H](C)O with Expi293 cells transfected with His-Halotag.
Reply: 8E+06

Task item: Answer briefly: Peptide Signal in Cells (from cells; agents comprising —Cl) recorded on Expi293 cells transfected with His-Halotag for CC(C)C[C@H](NC(=O)CCC(=O)NCCOCCOCCCCCCCl)C(=O)N[C@H](C(=O)N[C@@H](Cc1ccccc1)C(=O)N[C@]1(C)CCCCCCC=CCCC[C@@](C)(C(=O)N[C@@H](CO)C(=O)N[C@@H](C)C(=O)N[C@@H](C)C(N)=O)NC(=O)[C@H](CC2CCC2)NC(=O)[C@H](CCC(N)=O)NC(=O)[C@H](C)NC(=O)[C@H](Cc2c[nH]c3ccccc23)NC(=O)[C@H](Cc2ccc(O)cc2)NC(=O)[C@H](CCC(=O)O)NC1=O)[C@@H](C)O
Reply: 1E+05

Task item: GET Peptide Signal in Cells (from cells; agents comprising —Cl) where system = Expi293 cells transfected with His-Halotag and item = CNC(=O)[C@H](C)NC(=O)[C@H](C)NC(=O)[C@H](CO)NC(=O)[C@]1(C)CCCC=CCCCCCC[C@@](C)(NC(=O)[C@H](Cc2ccccc2)NC(=O)[C@@H](NC(=O)[C@H](CC(C)C)NC(=O)CCC(=O)NCCOCCOCCCCCCCl)[C@@H](C)O)C(=O)N[C@@H](C)C(=O)N[C@@H](Cc2ccc(O)cc2)C(=O)N[C@@H](Cc2c[nH]c3ccccc23)C(=O)N[C@@H](C)C(=O)N[C@@H](CCC(N)=O)C(=O)N[C@@H](CC2CCC2)C(=O)N1
Reply: 1E+07

Task item: State measured Peptide Signal in Cells (from cells; agents comprising —Cl) of the compound CNC(=O)[C@H](C)NC(=O)[C@H](C)NC(=O)[C@H](CO)NC(=O)[C@]1(C)CCCC=CCCCCCC[C@@](C)(NC(=O)[C@H](Cc2ccccc2)NC(=O)[C@@H](NC(=O)[C@H](CC(C)C)NC(=O)CCC(=O)NCCOCCOCCCCCCCl)[C@@H](C)O)C(=O)N[C@@H](CCC(=O)O)C(=O)N[C@@H](Cc2ccc(O)cc2)C(=O)N[C@@H](Cc2c[nH]c3ccccc23)C(=O)N[C@@H](C)C(=O)N[C@@H](CCC(N)=O)C(=O)N[C@@H](CC2CCC2)C(=O)N1 (single isomer, unassigned) with Expi293 cells transfected with His-Halotag.
Reply: 3E+05

Task item: // fetch Peptide Signal in Cells (from cells; agents comprising —Cl); item: CC(C)C[C@H](NC(=O)CCC(=O)NCCOCCOCCCCCCCl)C(=O)N[C@H](C(=O)N[C@@H](Cc1ccccc1)C(=O)N[C@]1(C)CCCCCCC=CCCC[C@@](C)(C(=O)N[C@@H](CO)C(=O)N[C@@H](C)C(=O)N[C@@H](C)C(N)=O)NC(=O)[C@H](CC2CCC2)NC(=O)[C@H](CCC(N)=O)NC(=O)[C@H](C)NC(=O)[C@H](Cc2c[nH]c3ccccc23)NC(=O)[C@H](Cc2ccc(O)cc2)NC(=O)[C@H]([C@@H](C)O)NC1=O)[C@@H](C)O ; system: Expi293 cells transfected with His-Halotag
Reply: 4E+07

// next item, Peptide Signal in Cells (from cells; agents comprising —Cl) requested
Task item: Supply Peptide Signal in Cells (from cells; agents comprising —Cl) measured with Expi293 cells transfected with His-Halotag for CC(C)C[C@H](NC(=O)CCC(=O)NCCOCCOCCCCCCCl)C(=O)N[C@H](C(=O)N[C@@H](Cc1ccccc1)C(=O)N[C@]1(C)CCCCCCC=CCCC[C@@](C)(C(=O)N[C@@H](CO)C(=O)N[C@@H](C)C(=O)N[C@@H](C)C(N)=O)NC(=O)[C@H](CC2CCC2)NC(=O)[C@H](CCC(N)=O)NC(=O)[C@H](C)NC(=O)[C@H](Cc2c[nH]c3ccccc23)NC(=O)[C@H](Cc2ccc(O)cc2)NC(=O)[C@H](C)NC1=O)[C@@H](C)O .
Reply: 4E+07
